Hello, the source for this data is patent US20240208952A1, in case you need it.

# method-summary: Metabolic stability in (human) liver microsomes
# Assay type: in vitro ADME
# run-parameters: pH 7.4, 0.5 mg/mL microsomal protein, 37° C., 0-45 minutes, LC-MS/MS, read-out: LMS(t1/2 min)
test-readout: half-life at 1 μM (min)
Reply numerically in min, unit not repeated.

>>> print(df.to_string())
                                   molecule  test_result
0  N#Cc1ccc(COc2ccc3c(n2)C2=C(COC3)CN(Cc3nc4ccc(C(=O)O)cc4n3C[C@@H]3CCO3)CC2)s1 [Compound 12]         59.8

Attention now shifts to the item below.
Query: Reported half-life at 1 μM, molecule O=C(O)c1ccc2nc(CN3CCC(c4cccc(OCc5cc6ccncc6s5)n4)CC3)n(C[C@@H]3CCO3)c2c1 [Compound 10] : ____
Result: 22.5
